test_target: Mu-type opioid receptor (Homo sapiens) + Delta-type opioid receptor (Homo sapiens) (UniProt P35372+P41143)
Sequence (P35372 whole entry, looked up): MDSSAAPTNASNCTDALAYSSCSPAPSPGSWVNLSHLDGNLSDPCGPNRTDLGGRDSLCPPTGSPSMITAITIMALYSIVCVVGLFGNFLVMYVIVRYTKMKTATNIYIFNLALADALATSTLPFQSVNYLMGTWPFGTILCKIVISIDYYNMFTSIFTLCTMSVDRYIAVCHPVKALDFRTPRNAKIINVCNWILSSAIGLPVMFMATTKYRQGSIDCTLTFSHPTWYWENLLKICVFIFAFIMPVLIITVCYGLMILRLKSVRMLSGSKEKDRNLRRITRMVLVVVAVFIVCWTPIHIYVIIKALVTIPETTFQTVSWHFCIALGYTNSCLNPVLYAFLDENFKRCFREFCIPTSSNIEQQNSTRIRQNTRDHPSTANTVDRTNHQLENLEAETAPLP
Sequence (P41143 whole entry, looked up): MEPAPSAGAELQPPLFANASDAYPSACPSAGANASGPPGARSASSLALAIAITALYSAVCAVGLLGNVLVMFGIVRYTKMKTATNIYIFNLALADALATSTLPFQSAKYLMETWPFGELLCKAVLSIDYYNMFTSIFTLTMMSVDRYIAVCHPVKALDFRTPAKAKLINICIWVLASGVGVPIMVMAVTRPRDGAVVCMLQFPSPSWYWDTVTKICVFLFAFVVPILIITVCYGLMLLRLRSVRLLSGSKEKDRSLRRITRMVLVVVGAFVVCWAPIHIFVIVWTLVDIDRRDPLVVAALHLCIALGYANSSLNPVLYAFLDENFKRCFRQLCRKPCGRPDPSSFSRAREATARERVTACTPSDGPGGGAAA
test_method_notes: OPRM1-OPRD1 heterodimer beta-arrestin recruitment activators – cell-based, luminescence, counter-screen for MC4R biased agonist project (AID 602194);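 further: 100% = deltorphin B at 0.9 µM final and 0% = DMSO alone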
recorded_conditions: U2OS PathHunter beta-arrestin, beta-gal luminescence; at 9.2 µM; active compounds read high; percent of deltorphin B response, DMSO zero
Screen size: about 2,400 compounds; about 140 (5.8%) were called active. These entries were drawn from the full list.
reported_endpoint: activation (%)
A number alone suffices; assume %.

                                   compound  reported_endpoint  measured_value
0  CCCCN1CC(C)(C)[C@H](CC(=O)Nc2ccc(Br)cc2)C1=O         activation             4.9
1  COc1ccc(C(=O)c2oc3ccc(Br)cc3c2NC(C)=O)cc1         activation             1.7
2  CN(C)C(=O)c1cccc(-c2cnc3c(NC=O)cc(-c4ccc(F)cc4)cn23)c1         activation            1.45
3  COCCNc1nc(Nc2ccccc2Cl)c2sc(-c3ccccc3)cc2n1         activation            5.13
4         Fc1ccccc1/C=N/Nc1cc(N2CCCCC2)ncn1         activation            7.52
5      CCC(=O)c1cc2c(cc1NC(=O)c1cccs1)OCCO2         activation            3.16
6  Cc1ccc2nc(-c3ccncc3)cc(C(=O)Nc3ccc(OC(F)F)cc3)c2c1         activation            8.13
7  CC(=O)Nc1ccc(-c2csc(NC(=O)Nc3ccccc3)n2)cc1         activation            4.45
8  CCc1ccc2c(c1)cc(CN(C(=S)Nc1ccccc1Cl)C1CC1)c1nnnn12         activation            2.95
9  COc1ccc(C(N)c2csc(NC(=O)Nc3cccc(C(F)(F)F)c3)n2)cc1 (configuration not stated)         activation            13.5

Q: Please look up its activation: `CC(=O)c1sc(NC(=O)CCCOc2ccccc2C)nc1C`
Result: 7.21

Q: // query: `COc1cccc(-c2cnc3c(NC(C)=O)cc(-c4cc(F)ccc4OC)cn23)c1`
Result: 3.13

Q: // query: `CCOC(=O)c1nn(-c2ccccc2F)c2nc(Nc3ccccc3)cc(=O)n12`
Result: 17.8

Q: // query: `COc1ccc(Cn2c(C)c(C)c(C#N)c2NC(=O)Nc2ccc(F)cc2)cc1`
Result: 7.17

Q: // query: `CCOC(=O)c1c(-c2ccccc2)oc2cc(Br)c(O)c(C=O)c12`
Result: 3.34

Q: // query: `Cc1ccc(NC(=O)Nc2ccccc2)c(Br)c1`
Result: 7.33

Q: // query: `O=C(CSc1ccccc1)Nc1nnc(/C=C/c2ccccc2)s1`
Result: 6.5

Q: // query: `COc1cccc2sc(N(CCCN(C)C)C(=O)C(c3ccccc3)c3ccccc3)nc12`
Result: 9.67

Q: // query: `Oc1ccccc1N1CCN(c2ncnc3sc(-c4ccccc4)cc23)CC1`
Result: 3.28

Q: // query: `COc1ccc2nc(NC(=O)c3ccc(Br)s3)sc2c1`
Result: 8.88

Q: // query: `CCN(CC)C(=O)Oc1ccc(Br)cc1C(=O)Nc1ccc(F)c(Cl)c1`
Result: 3.45

Q: // query: C=CCn1c(SCC(=O)c2ccc(Br)cc2)nnc1C(C)NC(=O)Cc1ccc(OC)cc1 (configuration not stated)
Result: 7.14

Attribution: PubChem BioAssay AID602194
